Assay type: in vivo, human
Conditions: human, plasma, po, 120 mg/m^2/day, Day 8 Cmax, cystic fibrosis patient, oral erlotinib 120 mg/m^2/day (150 mg), day 8, plasma
Measured quantity: Cmax (ng/mL)

Smiles repr | Quantitative readout
C#Cc1cccc(Nc2ncnc3cc(OCCOC)c(OCCOC)cc23)c1 | 1460

###

Type: in vivo, human
Settings: human, plasma, po, 120 mg/m^2/day, Day 8 AUCERL, cystic fibrosis patient, oral erlotinib 120 mg/m^2/day (150 mg), day 8 (steady state), plasma
Measured quantity: AUC (µg·h/mL)

Smiles repr | U | Quantitative readout
C#Cc1cccc(Nc2ncnc3cc(OCCOC)c(OCCOC)cc23)c1 | µg·h/mL | 25.7

Reference source: paper PMC2704987
